- Assay Method Text: Apparent permeability across MDCK2 cells
- Type: ADME, cell-based, Canis lupus familiaris, MDCK-II
- Details: dog, MDCK
Values of Papp strictly less than 10 ×10⁻⁶ cm/s map to YES, and values of at least 10 ×10⁻⁶ cm/s map to NO.

Example entries and their recorded answers appear below.
* CC(=O)N[C@@H](Cc1cc(F)cc(F)c1)[C@H](O)CNC1(c2nc(CC(C)(C)C)cs2)CC1 | NO
* CC(=O)N[C@@H](Cc1cc(F)cc(F)c1)[C@H](O)CNC1(c2cnn(CC(C)(C)C)c2)CC1 | NO
* CC(=O)N[C@@H](Cc1cc(F)cc(F)c1)[C@H](O)CNC1(c2cc(CC(C)(C)C)no2)CCCCC1 | NO

Consider the compound `CC(=O)N[C@@H](Cc1cc(F)cc(F)c1)[C@H](O)CNC1(c2cncc(CC(C)(C)C)c2)CC1` . Is its Papp strictly less than 10 ×10⁻⁶ cm/s?
NO

Consider the compound `CC(=O)N[C@@H](Cc1cc(F)cc(F)c1)[C@H](O)CNC1(c2cc(C(C)(C)C)ncn2)CCCCC1` . Is its Papp strictly less than 10 ×10⁻⁶ cm/s?
NO

Consider the compound `CC(=O)N[C@@H](Cc1cc(F)cc(F)c1)[C@H](O)CNC1(c2cccc(C(C)(C)C)c2)CC1` . Is its Papp strictly less than 10 ×10⁻⁶ cm/s?
YES

###

- Test Target: Beta-secretase 1 (Homo sapiens, UniProt P56817)
- Sequence (P56817 whole entry): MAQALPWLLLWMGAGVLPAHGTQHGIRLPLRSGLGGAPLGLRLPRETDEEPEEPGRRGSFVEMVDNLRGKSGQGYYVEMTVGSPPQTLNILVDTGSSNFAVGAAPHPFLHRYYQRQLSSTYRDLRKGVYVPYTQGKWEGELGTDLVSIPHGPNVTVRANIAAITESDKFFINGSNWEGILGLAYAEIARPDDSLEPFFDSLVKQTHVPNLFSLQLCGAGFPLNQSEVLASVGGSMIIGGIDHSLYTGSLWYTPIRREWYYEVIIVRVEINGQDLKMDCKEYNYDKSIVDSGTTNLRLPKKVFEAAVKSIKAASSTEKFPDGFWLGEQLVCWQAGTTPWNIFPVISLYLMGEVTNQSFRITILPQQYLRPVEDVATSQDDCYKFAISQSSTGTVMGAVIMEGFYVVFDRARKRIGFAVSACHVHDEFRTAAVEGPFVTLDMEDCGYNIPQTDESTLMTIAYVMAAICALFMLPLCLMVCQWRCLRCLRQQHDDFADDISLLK
- Assay Method Text: Inhibition of BACE1 in HEK293 cells
- Type: cell-based
Property: ED50

* CC(=O)N[C@@H](Cc1cc(F)cc(F)c1)[C@H](O)CNC1(c2csc(CC(C)(C)C)n2)CC1 | 3850 nM
* CC(=O)N[C@@H](Cc1cc(F)cc(F)c1)[C@H](O)CNC1(c2cccc(C(C)(C)C)c2)CC1 | 51 nM
* CC(=O)N[C@@H](Cc1cc(F)cc(F)c1)[C@H](O)CNC1(c2ncc(C(C)(C)C)o2)CCCCC1 | 760 nM

I need ED50 for every entry listed below, if you could help.
1. CC(=O)N[C@@H](Cc1cc(F)cc(F)c1)[C@H](O)CNC1(c2cc(C(C)C)cs2)CCCCC1
2. CC(=O)N[C@@H](Cc1cc(F)cc(F)c1)[C@H](O)CNC1(c2cc(CC(C)(C)C)cs2)CC1
3. CC(=O)N[C@@H](Cc1cc(F)cc(F)c1)[C@H](O)CNC1(c2cccs2)CCCCC1
4. COc1cc(C(C)(C)C)cc(C2(NC[C@@H](O)[C@H](Cc3cc(F)cc(F)c3)NC(C)=O)CCCCC2)c1

1. < 80 nM
2. 346 nM
3. 1330 nM
4. 68 nM

Hello, the source for this data is ChEMBL document CHEMBL1255191, in case you need it.
